B1: Hairpin Ribozyme (parent)
chain: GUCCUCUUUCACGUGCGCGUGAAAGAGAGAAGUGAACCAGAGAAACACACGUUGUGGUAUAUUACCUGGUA

Variants of: B1
method.description: self-cleavage, relative activity (ratio to wild type); higher = more cleavage; co-transcriptional
Quick rule for you: self-cleavage at 0.2 or higher means met, lower means not met.

Worked examples, 3 variants total:
alteration: G42A A71U
class.assignment: not met

alteration: C6A C65A
class.assignment: met

alteration: C65G G68C
class.assignment: not met

*Q* Determine whether measured self-cleavage meets or exceeds 0.2 for A28C G68U
*A* met

*Q* Same question, G51C this time
*A* met

*Q* Same question, A30U C66A this time
*A* not met

*Q* Same question, G29U A35G this time
*A* not met

*Q* Same question, G56A G69C this time
*A* not met

*Q* Same question, C50A G69U this time
*A* not met

*Q* Same question, U7C A23U this time
*A* met

*Q* Same question, A30C G34C this time
*A* met

*Q* Same question, C12A U20G this time
*A* met

*Q* Same question, C38U G51C this time
*A* met

*Q* Same question, U5G U58C this time
*A* met

*Q* Same question, G34A U63A this time
*A* met

All figures here come from the RNAGym collection of RNA variant scans (doi:10.7554/elife.80360).
